# System tested: 5-hydroxytryptamine receptor 1A (Rattus norvegicus)
# Sequence (P19327 whole entry): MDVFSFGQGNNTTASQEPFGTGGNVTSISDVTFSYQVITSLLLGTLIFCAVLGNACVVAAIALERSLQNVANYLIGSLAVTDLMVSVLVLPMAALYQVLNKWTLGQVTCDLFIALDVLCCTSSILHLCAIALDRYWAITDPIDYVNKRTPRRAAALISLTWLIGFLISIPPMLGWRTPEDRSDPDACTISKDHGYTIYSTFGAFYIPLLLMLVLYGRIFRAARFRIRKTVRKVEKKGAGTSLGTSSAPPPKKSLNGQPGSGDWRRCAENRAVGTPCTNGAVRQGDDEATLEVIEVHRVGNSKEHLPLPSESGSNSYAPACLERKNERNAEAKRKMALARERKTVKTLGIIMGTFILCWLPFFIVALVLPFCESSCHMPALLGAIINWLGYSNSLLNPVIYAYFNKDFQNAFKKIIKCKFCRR
pKi: −log10 of the molar value.
Please mark 1 (yes) if the recorded pKi is equal to or greater than 7, and 0 (no) if it falls below.

Compound	System tested	Assigned category
Cc1cc(=O)oc2c(Cl)c(OCCCCN3CCC(c4noc5cc(F)ccc45)CC3)ccc12	5-hydroxytryptamine receptor 1A (Rattus norvegicus)	1 (yes)
Cc1ccc(S(=O)(=O)N2CCN(CCCCOc3ccc4c(C)cc(=O)oc4c3)CC2)cc1	5-hydroxytryptamine receptor 1A (Rattus norvegicus)	0 (no)
Cc1cc(=O)oc2cc(OCC(O)CN3CCC(c4noc5cc(F)ccc45)CC3)ccc12 (stereo not given)	5-hydroxytryptamine receptor 1A (Rattus norvegicus)	0 (no)
COc1ccccc1N1CCN(CCCCOc2ccc3c(-c4ccccc4)cc(=O)oc3c2)CC1	5-hydroxytryptamine receptor 1A (Rattus norvegicus)	0 (no)
COc1ccccc1N1CCN(CCCCOc2ccc3c(C(F)(F)F)cc(=O)oc3c2)CC1	5-hydroxytryptamine receptor 1A (Rattus norvegicus)	1 (yes)
Cc1cc(=O)oc2cc(OCCCCN3CCN(c4cccc(Cl)c4Cl)CC3)ccc12	5-hydroxytryptamine receptor 1A (Rattus norvegicus)	1 (yes)
O=c1cc(-c2cccs2)c2ccc(OCCCCN3CCC(c4noc5cc(F)ccc45)CC3)cc2o1	5-hydroxytryptamine receptor 1A (Rattus norvegicus)	0 (no)
